Let's look at some molecules and their measured IC50 at 72 h.
Experiment: in vitro
Assay type: cell-based
Conditions: human; 72 hour; read-out: IC50 [μM], cytotoxicity against K562 cells
metric.name: IC50 at 72 h (µM)

>>> print(df.to_string())
                                   molecule   metric_name  censor_symbol  value
0  C/C(=C\CCP(=O)(NCC(=O)OC(C)C)Oc1ccccc1)CO (centres unmarked)  IC50 at 72 h              =     23
1  COC(=O)CNP(=O)(CC/C=C(\C)CO)Oc1ccc2ccccc2c1 (centres unmarked)  IC50 at 72 h              >    100
2  CCOC(=O)CNP(=O)(CC/C=C(\C)CO)Oc1cccc2ccccc12 (centres unmarked)  IC50 at 72 h              =     24
3  CCOC(=O)CNP(=O)(CC/C=C(\C)CO)Oc1ccccc1 (centres unmarked)  IC50 at 72 h              >    100
4  COC(=O)CNP(=O)(CC/C=C(\C)CO)Oc1ccccc1 (centres unmarked)  IC50 at 72 h              >    100

---

Let's look at some molecules and their measured IC50 at 72 h.
Test: in vitro
Type: cell-based
Details: human
metric.name: IC50 at 72 h

                                   molecule     value
0  Oc1cccc2ccccc12 [Compound 1-naphthol, 1-naphthol, reference compound]  > 100 µM
1  Oc1ccc2ccccc2c1 [Compound 2-naphthol, 2-naphthol, reference compound]  > 100 µM

---

Let's look at some molecules and their measured IC50 at 72 h.
Assay: in vitro
Assay type: cell-based
Conditions: human; 72 hour; read-out: IC50 [μM], cytotoxicity against K562 cells
metric.name: IC50 at 72 h (µM)

>>> df
                                   molecule  censor_symbol  value
0  C/C(=C\CCP(=O)(NCC(=O)OC(C)C)Oc1cccc2ccccc12)CO (stereo not shown) [Compound 6]              >    100
1  CCOC(=O)CNP(=O)(CC/C=C(\C)CO)Oc1ccc2ccccc2c1 (stereo not shown) [Compound 8]              =     28
2  COC(=O)CNP(=O)(CC/C=C(\C)CO)Oc1cccc2ccccc12 (stereo not shown) [Compound 4]              =     40
3  C/C(=C\CCP(=O)(NCC(=O)OC(C)C)Oc1ccc2ccccc2c1)CO (stereo not shown) [Compound 9]              >    100

---

Test: Stability in 50% pooled human plasma in PBS (LCMS)
Assay type: in vitro ADME
metric.name: t1/2

>>> print(df.to_string())
                                   molecule   value
0  C/C(=C\CCP(=O)(OCOC(=O)C(C)(C)C)OCOC(=O)C(C)(C)C)CO [Compound 104, reference compound]  0.14 h
1  C/C(=C\CCP(=O)(NCC(=O)OC(C)C)Oc1cccc2ccccc12)CO (stereo not shown)   >24 h
2  COC(=O)CNP(=O)(CC/C=C(\C)CO)Oc1cccc2ccccc12 (stereo not shown)   >24 h
3  COC(=O)CNP(=O)(CC/C=C(\C)CO)Oc1ccccc1 (stereo not shown)   >24 h

---

Test: in vitro
Format: cell-based
Details: human
metric.name: IC50

In [3]: df
Out[3]:
                                 compound     value
0  Oc1ccccc1 [Phenol, reference compound]  > 100 µM
